# experimental.target: extracellular domain of Transferrin Receptor 1 (UniProt P02786 89-760)
# Sequence (P02786 89-760): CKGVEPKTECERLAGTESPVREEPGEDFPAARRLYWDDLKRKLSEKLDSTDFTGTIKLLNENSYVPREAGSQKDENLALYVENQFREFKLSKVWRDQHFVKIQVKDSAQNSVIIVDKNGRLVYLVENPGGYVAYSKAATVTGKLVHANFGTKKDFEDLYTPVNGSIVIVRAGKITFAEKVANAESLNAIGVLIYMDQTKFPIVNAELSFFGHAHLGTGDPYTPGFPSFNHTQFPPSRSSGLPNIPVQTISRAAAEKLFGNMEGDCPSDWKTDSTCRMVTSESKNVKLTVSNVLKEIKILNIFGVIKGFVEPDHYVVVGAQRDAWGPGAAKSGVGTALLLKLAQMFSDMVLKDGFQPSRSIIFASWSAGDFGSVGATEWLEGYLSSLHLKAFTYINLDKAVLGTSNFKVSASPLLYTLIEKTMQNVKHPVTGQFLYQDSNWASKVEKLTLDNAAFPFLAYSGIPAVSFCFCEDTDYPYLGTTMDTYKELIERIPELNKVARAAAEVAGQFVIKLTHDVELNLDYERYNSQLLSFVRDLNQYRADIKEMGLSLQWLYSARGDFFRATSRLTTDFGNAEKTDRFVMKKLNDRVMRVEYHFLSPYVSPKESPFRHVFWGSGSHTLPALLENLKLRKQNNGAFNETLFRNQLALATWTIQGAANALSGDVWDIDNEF
# test.protocol: BLI
Starred links: 1 amine or outer side, 2 acyl side, 3 side chain; linkers in the order of their positions; H or OH if unused. Positions of bridges follow the written chain, without caps; N, C: chain ends. No end group written: not given here. TBMB = c1c(C[*:1])cc(C[*:3])cc1C[*:2]
measured.metric: pKd
Scale note: pKd = -log10(concentration in M).

Memo: CVHWDCRQWC (linker 1-6-10 via TBMB) [BrainBike-4 as used in biolayer interferometry] , reported pKd: 4.60
